Origin of values: patent US20250059172A1

# system_name: human mPGES-1 (Homo sapiens (Human))
# test_method_notes: mPGES-1 inhibitory activity test
# Type: biochemical
# test_parameters: 10 nM test compound
readout_label: inhibition at 0.01 µM (%)

COc1ccc(-n2ncc3c(NC(=O)c4cc(CNC(=O)C(C)(C)C)ccc4C(F)(F)F)cccc32)cn1: 68
Cc1ccc(-n2ncc3c(NC(=O)c4cc(CNC(=O)C(C)(C)C)ccc4C(F)(F)F)cccc32)cc1Cl: 69
O=C(Nc1cccc2c1cnn2-c1cscn1)c1cc(CNS(=O)(=O)C2CC2)ccc1Cl: 71
O=C(Nc1cccc2c1cnn2-c1cscn1)c1cc(CNC(=O)C2CCCC2)ccc1Cl: 68

====

# system_name: human mPGES-1 (Homo sapiens (Human))
# test_method_notes: mPGES-1 inhibitory activity test
# Format: biochemical
# test_parameters: microsomes of CHO-K1 cells expressing human mPGES-1, PGH2 1 μM, PGE2 by HTRF; read-out: mPGES-1 inhibition (IC50 nM)
Where a name gives a salt, the structure may show the parent alone.
readout_label: IC50 (nM)

Cn1ncc2c(NC(=O)c3cc(CNC(=O)C4CC4)ccc3Cl)cccc21: 12.9

[P] COCc1cncc(-n2ncc3c(NC(=O)c4cc(CNC(=O)C(C)(C)C)ccc4Cl)cccc32)c1 [Example 78, hydrochloride]
[Q] Cc1ccccc1-n1ncc2c(NC(=O)c3cc(CNC(=O)C4CC4)ccc3Cl)cccc21
[R] Cc1cc(OC(F)(F)F)ccc1-n1ncc2c(NC(=O)c3cc(CNC(=O)C(C)(C)C)ccc3Cl)cccc21
### Prompt Hey, can you sort those compounds up there by IC50, smallest first? Form field (ranking): labels in requested order.
### Response R, Q, P

====

# system_name: UniProtKB O14684
# test_method_notes: mPGES-1 inhibitory activity test
# Type: biochemical
# test_parameters: 10 nM test compound
readout_label: inhibition at 0.01 µM (%)

COc1ccc(-n2ncc3c(NC(=O)c4cc(CNS(=O)(=O)C5CC5)ccc4Cl)cccc32)cn1 [Example 275]: 66
CC(C)(CO)C(=O)NCc1ccc(Cl)c(C(=O)Nc2cccc3c2cnn3-c2ccc(F)cc2)c1 [Example 156]: 63
CCn1ncc2c(NC(=O)c3cc(CNC(=O)CC(C)(C)C)ccc3Cl)cccc21 [Example 210]: 64
Cc1ccc(-n2ncc3c(NC(=O)c4cc(CNC(=O)C5(C(F)(F)F)CC5)ccc4Cl)cccc32)cc1C(F)(F)F [Example 256]: 88
CC(C)(CO)C(=O)NCc1ccc(Cl)c(C(=O)Nc2cccc3c2cnn3-c2cccc(OC(F)(F)F)c2)c1 [Example 125]: 62
CC(C)(C)C(=O)NCc1ccc(C(F)(F)F)c(C(=O)Nc2cccc3c2cnn3-c2ccc(C(F)(F)F)nc2)c1 [Example 196]: 60
O=C(Nc1cccc2c1cnn2-c1cccc(C(F)(F)F)c1)c1cc(CNC(=O)C2CCCC2)ccc1Cl [Example 219]: 74
CC(C)(CO)C(=O)NCc1ccc(Cl)c(C(=O)Nc2cccc3c2cnn3-c2cccc(C(F)(F)F)c2)c1 [Example 223]: 78
COCC(=O)NCc1ccc(Cl)c(C(=O)Nc2cccc3c2cnn3-c2ccc(C)c(C(F)(F)F)c2)c1 [Example 258]: 84
O=C(Nc1cccc2c1cnn2-c1ccc(F)cc1)c1cc(CNC(=O)C2(O)CC2)ccc1Cl [Example 154]: 58
O=C(Nc1cccc2c1cnn2-c1ccc(F)cc1)c1cc(CNC(=O)C2CCCC2)ccc1Cl [Example 152]: 58
CC(C)(C)CC(=O)NCc1ccc(Cl)c(C(=O)Nc2cccc3c2cnn3-c2ccc(OC(F)(F)F)cc2)c1 [Example 114]: 87
O=C(Nc1cccc2c1cnn2-c1ccc(Cl)cc1)c1cc(CNS(=O)(=O)C2CC2)ccc1Cl [Example 150]: 72
COCC(=O)NCc1ccc(Cl)c(C(=O)Nc2cccc3c2cnn3-c2ccc(F)cc2)c1 [Example 155]: 100
O=C(Nc1cccc2c1cnn2-c1ccc(OC(F)(F)F)cc1)c1cc(CNC(=O)C2CCCC2)ccc1Cl [Example 115]: 61
Cn1ncc2c(NC(=O)c3cc(CNS(=O)(=O)C4CC4)ccc3Cl)cccc21 [Example 208]: 63
COc1ccc(-n2ncc3c(NC(=O)c4cc(CNC(=O)C5CCCC5)ccc4Cl)cccc32)cn1 [Example 270]: 64
O=C(Nc1cccc2c1cnn2-c1cccc(C(F)(F)F)c1)c1cc(CNS(=O)(=O)C2CC2)ccc1Cl [Example 224]: 83
O=C(Nc1cccc2c1cnn2-c1ccc(C(F)(F)F)nc1)c1cc(CNC(=O)C2CCCC2)ccc1Cl [Example 174]: 85
COc1ccc(-n2ncc3c(NC(=O)c4cc(CNC(=O)CC(C)(C)C)ccc4Cl)cccc32)cc1C(F)(F)F [Example 261]: 95
Cn1ncc2c(NC(=O)c3cc(CNC(=O)C(C)(C)C)ccc3C(F)(F)F)cccc21 [Example 209]: 76
O=C(Nc1cccc2c1cnn2-c1ccc(Cl)cc1)c1cc(CNC(=O)C2(C(F)(F)F)CC2)ccc1Cl [Example 147]: 85
CC(C)(C)CC(=O)NCc1ccc(Cl)c(C(=O)Nc2cccc3c2cnn3-c2ccc(C(F)(F)F)nc2)c1 [Example 173]: 54
O=C(Nc1cccc2c1cnn2-c1cccc(OC(F)F)c1)c1cc(CNC(=O)C2(O)CC2)ccc1Cl [Example 141]: 54
O=C(Nc1cccc2c1cnn2-c1nccs1)c1cc(CNC(=O)C2(C(F)(F)F)CC2)ccc1Cl [Example 228]: 77
Cc1ccc(-n2ncc3c(NC(=O)c4cc(CNC(=O)C5(C(F)(F)F)CC5)ccc4Cl)cccc32)cc1Cl [Example 129]: 67
Cc1ccc(-n2ncc3c(NC(=O)c4cc(CNS(=O)(=O)C5CC5)ccc4Cl)cccc32)cc1Cl [Example 132]: 86
O=C(Nc1cccc2c1cnn2-c1cccc(OC(F)F)c1)c1cc(CNS(=O)(=O)C2CC2)ccc1Cl [Example 144]: 73

====

# system_name: human mPGES-1 (Homo sapiens (Human))
# test_method_notes: mPGES-1 inhibitory activity test
# Format: biochemical
# test_parameters: microsomes of CHO-K1 cells expressing human mPGES-1, PGH2 1 μM, PGE2 by HTRF; read-out: mPGES-1 inhibition (IC50 nM)
Where a name gives a salt, the structure may show the parent alone.
readout_label: IC50 (nM)

Solved entries (count: 10):
O=C(Nc1cccc2c1cnn2-c1ccc(C(F)(F)F)cc1)c1cc(CNC(=O)C2(O)CC2)ccc1Cl: 10
CC(C)(CO)C(=O)NCc1ccc(Cl)c(C(=O)Nc2cccc3c2cnn3-c2ccc(C(F)(F)F)cc2)c1: 1.9
COC(C)(C)c1ccc(-n2ncc3c(NC(=O)c4cc(CNC(=O)C(C)(C)C)ccc4Cl)cccc32)cn1 [Example 84, hydrochloride]: 0.8
COCC(=O)NCc1ccc(Cl)c(C(=O)Nc2cccc3c2cnn3-c2ccc(C(F)(F)F)cc2)c1: 3.8
O=C(Nc1cccc2c1cnn2-c1ccc(C(F)(F)F)cc1)c1cc(CNC(=O)C(F)(F)F)ccc1Cl: 17
Cc1ccc(-n2ncc3c(NC(=O)c4cc(CNC(=O)C(C)(C)C)ccc4C(F)(F)F)cccc32)cn1.Cl [Example 88, hydrochloride]: 1.5
O=C(Nc1cccc2c1cnn2-c1cccnc1)c1cc(CNC(=O)C2CC2)ccc1Cl [Example 4, hydrochloride]: 18.8
COc1ccc(-n2ncc3c(NC(=O)c4cc(CNC(=O)C(C)(C)C)ccc4Cl)cccc32)cc1OC: 3.7
Cc1ccc(-n2ncc3c(NC(=O)c4cc(CNC(=O)C(C)(C)C)ccc4Cl)cccc32)nn1: 34.2
CC(C)(C)C(=O)NCc1ccc(Cl)c(C(=O)Nc2cccc3c2cnn3-c2ccc(C(F)(F)F)nc2)c1: 1.1

[1] COc1ccc(-n2ncc3c(NC(=O)c4cc(CNC(=O)C(C)(C)C)ccc4Cl)cccc32)cc1
[2] COc1cccc(-n2ncc3c(NC(=O)c4cc(CNC(=O)C(C)(C)C)ccc4Cl)cccc32)c1
[3] CC(C)(C)C(=O)NCc1ccc(Cl)c(C(=O)Nc2cccc3c2cnn3Cc2ccc(C(F)(F)F)cc2)c1
### Prompt Given 3 molecules, produce a descending ranking by IC50. Form field (ranking): labels in requested order.
### Response 2, 3, 1
(2: 9.9 nM, 3: 5.4 nM, 1: 3.3 nM)

[A] CCOc1cccc(-n2ncc3c(NC(=O)c4cc(CNC(=O)C(C)(C)C)ccc4Cl)cccc32)c1
[B] Cc1cc(-n2ncc3c(NC(=O)c4cc(CNC(=O)C(C)(C)C)ccc4Cl)cccc32)cc(C)n1 [Example 76, hydrochloride]
[C] O=C(Nc1cccc2c1cnn2-c1cccc(C(F)(F)F)c1)c1cc(CNC(=O)C2CC2)ccc1Cl
[D] CC(C)(C)C(=O)NCc1ccc(Cl)c(C(=O)Nc2cccc3c2cnn3-c2cccc(OC(F)(F)F)c2)c1
### Prompt Given 4 molecules, produce a descending ranking by IC50. Form field (ranking): labels in requested order.
### Response B, C, A, D
(B: 2.4 nM, C: 1.2 nM, A: 0.2 nM, D: 0.1 nM)

====

# system_name: human mPGES-1 (Homo sapiens (Human), UniProt O14684)
# Sequence (O14684 whole entry): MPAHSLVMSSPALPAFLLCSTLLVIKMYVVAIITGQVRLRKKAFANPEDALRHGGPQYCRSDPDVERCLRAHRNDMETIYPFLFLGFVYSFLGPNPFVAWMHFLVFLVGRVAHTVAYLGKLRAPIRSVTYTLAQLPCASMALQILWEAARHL
# test_method_notes: mPGES-1 inhibitory activity test
# Assay type: biochemical
# test_parameters: 10 nM test compound
readout_label: inhibition at 0.01 µM (%)

CC(C)(CO)C(=O)NCc1ccc(Cl)c(C(=O)Nc2cccc3c2cnn3-c2ccc(Cl)cc2)c1: 94
Cc1cc(-n2ncc3c(NC(=O)c4cc(CNC(=O)C(C)(C)C)ccc4C(F)(F)F)cccc32)cc(C)n1: 72
CC(C)(C)CC(=O)NCc1ccc(Cl)c(C(=O)Nc2cccc3c2cnn3-c2ccc(F)cc2)c1: 100
O=C(Nc1cccc2c1cnn2-c1cccc(OC(F)(F)F)c1)c1cc(CNC(=O)C2(C(F)(F)F)CC2)ccc1Cl: 98
